Molecular target: Adenosine receptor A2b (Homo sapiens, UniProt P29275)
Sequence (P29275 whole entry): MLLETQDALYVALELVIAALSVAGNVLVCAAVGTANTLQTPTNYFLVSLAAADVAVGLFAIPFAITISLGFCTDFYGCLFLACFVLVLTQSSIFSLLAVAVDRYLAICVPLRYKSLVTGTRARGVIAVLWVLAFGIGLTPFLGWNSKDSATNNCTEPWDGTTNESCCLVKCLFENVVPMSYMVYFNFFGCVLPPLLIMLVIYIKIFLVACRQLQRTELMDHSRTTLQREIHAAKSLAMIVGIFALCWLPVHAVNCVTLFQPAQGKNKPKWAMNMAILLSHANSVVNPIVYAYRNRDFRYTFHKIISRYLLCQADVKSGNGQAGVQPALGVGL
Test: Antagonist activity against human Adenosine A2b receptor
pKi: −log10 of the molar value.
property_label: pKi

(P) CCCn1c(=O)c2[nH]c(-c3ccc(OCC(=O)Nc4ccc(F)cc4)nc3)nc2n(CCC)c1=O
(Q) CCCn1c(=O)c2[nH]c(-c3cc(OCC(=O)O)no3)nc2n(CCC)c1=O
Hey, which is lower on measured pKi, P or Q ? Kindly give the label for the entry you pick.
Q
(Q: 7.74, P: 8.32)
